- experimental protocol: Inhibition of advanced glycation end product formation in phosphate buffered saline at pH 7.4 after 14 days by fluorospectrophotometry in presence of bovine serum albumin
- Format: physicochemical
endpoint: IC50 (µM)

Solved entries:
>  <line notation>
O=c1cc(-c2ccccc2)oc2cc(O)cc(O)c12

>  <IC50 / µM>
63.5

$$$$
>  <line notation>
O=C(CCCCO[N+](=O)[O-])OCOc1cc(O)c2c(=O)cc(-c3ccccc3)oc2c1

>  <IC50 / µM>
52.5

$$$$
>  <line notation>
N=C(N)NN

>  <IC50 / µM>
826

$$$$

(A) O=c1cc(-c2ccccc2)oc2cc(OCCCCO[N+](=O)[O-])cc(O)c12
(B) O=C(CCCCCCO[N+](=O)[O-])OCOc1cc(O)c2c(=O)cc(-c3ccccc3)oc2c1
(C) O=C(CCO[N+](=O)[O-])OCOc1cc(O)c2c(=O)cc(-c3ccccc3)oc2c1
Arrange these 3 molecules in increasing order of IC50. # respond with the labels, arranged in the requested order
C, A, B
(C: 43.9 µM, A: 75.5 µM, B: 138 µM)

---

- experimental protocol: Induction of NO release in phosphate buffered saline of pH 7.4 at 100 uM after 1 hr by Griess assay in presence of L-cysteine
- Assay type: physicochemical
- test settings: buffer, pH 7.4, 1 h
endpoint: Activity (%)

>  <line notation>
CC(=O)Oc1cc(OCCCCCCO[N+](=O)[O-])cc2oc(-c3ccccc3)cc(=O)c12

>  <Activity (%)>
1.43

$$$$
>  <line notation>
O=C(CCCCO[N+](=O)[O-])OCOc1cc(O)c2c(=O)cc(-c3ccccc3)oc2c1

>  <Activity (%)>
1.26

$$$$
>  <line notation>
O=c1cc(-c2ccccc2)oc2cc(OCCO[N+](=O)[O-])cc(O)c12

>  <Activity (%)>
1.67

$$$$
>  <line notation>
O=C(CCO[N+](=O)[O-])OCOc1cc(O)c2c(=O)cc(-c3ccccc3)oc2c1

>  <Activity (%)>
1.77

$$$$
>  <line notation>
CC(=O)Oc1cc(OCCCCO[N+](=O)[O-])cc2oc(-c3ccccc3)cc(=O)c12

>  <Activity (%)>
1.48

$$$$
>  <line notation>
O=c1cc(-c2ccccc2)oc2cc(OCCCCCCO[N+](=O)[O-])cc(O)c12

>  <Activity (%)>
1.21

$$$$
>  <line notation>
O=c1cc(-c2ccccc2)oc2cc(OCCCCO[N+](=O)[O-])cc(O)c12

>  <Activity (%)>
1.43

$$$$
>  <line notation>
O=C(CCCCCCO[N+](=O)[O-])OCOc1cc(O)c2c(=O)cc(-c3ccccc3)oc2c1

>  <Activity (%)>
1.38

$$$$
>  <line notation>
CC(=O)Oc1cc(OCCO[N+](=O)[O-])cc2oc(-c3ccccc3)cc(=O)c12

>  <Activity (%)>
1.68

$$$$

---

- target system: Aldo-keto reductase family 1 member B1 (Bos taurus)
- experimental protocol: Inhibition of aldose reductase from calf lense by AR assay
pIC50: −log10 of the molar value.
endpoint: pIC50

>  <line notation>
CC(=O)Oc1cc(OCCCCO[N+](=O)[O-])cc2oc(-c3ccccc3)cc(=O)c12

>  <pIC50>
6.41

$$$$

(a) CC(=O)Oc1cc(OCCCCCCO[N+](=O)[O-])cc2oc(-c3ccccc3)cc(=O)c12
(b) O=c1cc(-c2ccccc2)oc2cc(OCCCCCCO[N+](=O)[O-])cc(O)c12
(c) O=C(CCCCCCO[N+](=O)[O-])OCOc1cc(O)c2c(=O)cc(-c3ccccc3)oc2c1
(d) O=C(CCCCO[N+](=O)[O-])OCOc1cc(O)c2c(=O)cc(-c3ccccc3)oc2c1
Arrange these 4 compounds in increasing order of pIC50. # respond with the labels, arranged in the requested order
b, a, c, d
(b: 6.15, a: 6.38, c: 6.68, d: 6.89)
